Tested on: ATP;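 further: ATP exposure 15 min at 22 °C before imaging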
Assay: switch fluorescence ratio, 500 uM ATP over buffer (Cy3 cluster intensity, sum of 5 cycles each) (fold (ratio)); higher = stronger signal-on switching upon ATP binding; sequences stand for … in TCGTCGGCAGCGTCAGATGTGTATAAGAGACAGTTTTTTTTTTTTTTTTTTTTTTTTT…TC
Settings: aptamer strand: ATP DNA aptamer (quencher-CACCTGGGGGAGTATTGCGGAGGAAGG + anchor), 100 nM annealed; ATP concentration: 500 uM
Everything with switch fluorescence ratio lower than 1 is not fulfilled; everything else, including exactly 1, is fulfilled.

SEQ_TEXT: TCTGCATGGT
ASSIGNED_CATEGORY: fulfilled

SEQ_TEXT: AATCGGGTTT
ASSIGNED_CATEGORY: not fulfilled

SEQ_TEXT: TTCGCGGTCT
ASSIGNED_CATEGORY: fulfilled

SEQ_TEXT: GTGAGGACAA
ASSIGNED_CATEGORY: fulfilled

SEQ_TEXT: AACTTTTTAT
ASSIGNED_CATEGORY: fulfilled

SEQ_TEXT: GGGAAGATTA
ASSIGNED_CATEGORY: not fulfilled

SEQ_TEXT: ATGTGTAACA
ASSIGNED_CATEGORY: not fulfilled

SEQ_TEXT: TCGTAAAAA
ASSIGNED_CATEGORY: fulfilled

SEQ_TEXT: TGTAAGGTGA
ASSIGNED_CATEGORY: fulfilled

SEQ_TEXT: CGTTCGACTG
ASSIGNED_CATEGORY: not fulfilled

SEQ_TEXT: CCAGGCTTGA
ASSIGNED_CATEGORY: fulfilled

SEQ_TEXT: TCGGCTGCGT
ASSIGNED_CATEGORY: fulfilled

SEQ_TEXT: GGTCGGGC
ASSIGNED_CATEGORY: not fulfilled

SEQ_TEXT: GAGTCGTGTG
ASSIGNED_CATEGORY: fulfilled

SEQ_TEXT: TGATCTTGTT
ASSIGNED_CATEGORY: not fulfilled

SEQ_TEXT: AGTCGTTCAG
ASSIGNED_CATEGORY: not fulfilled

SEQ_TEXT: TCCCTCAGGG
ASSIGNED_CATEGORY: fulfilled

SEQ_TEXT: TGTCGTTGGG
ASSIGNED_CATEGORY: not fulfilled

SEQ_TEXT: ATGCAGACGA
ASSIGNED_CATEGORY: fulfilled

SEQ_TEXT: CAATTTGTGG
ASSIGNED_CATEGORY: not fulfilled

SEQ_TEXT: GTTTGAAATT
ASSIGNED_CATEGORY: fulfilled

SEQ_TEXT: CCTCTGATCT
ASSIGNED_CATEGORY: fulfilled

SEQ_TEXT: TATTTAATGA
ASSIGNED_CATEGORY: fulfilled

SEQ_TEXT: TGCCCATGAT
ASSIGNED_CATEGORY: not fulfilled

SEQ_TEXT: CAAAAAACGG
ASSIGNED_CATEGORY: fulfilled

SEQ_TEXT: GCGGGGCAAG
ASSIGNED_CATEGORY: fulfilled

SEQ_TEXT: GGACGCATAA
ASSIGNED_CATEGORY: fulfilled

SEQ_TEXT: TCTTCGGAGT
ASSIGNED_CATEGORY: fulfilled

SEQ_TEXT: CCGGGGGGGT
ASSIGNED_CATEGORY: fulfilled

SEQ_TEXT: CCATGAGCAG
ASSIGNED_CATEGORY: fulfilled
